// reported IC50 for each item listed
Tested on: Hepa1c1c7 cells
METHOD_DESCRIPTION: MTT growth inhibition / cytotoxicity on Hepa1c1c7 cells
Assay type: cell-based, murine
ASSAY_CONDITIONS: Mus musculus, Hepa-1c1c7, 48 h, highest concentration tested 25 μM
Give a bare numeral; the unit µM is implied.

Q. What does the record list as IC50 for COc1ccc2c(c1)NC(=O)/C2=C/c1cccc(C(F)(F)F)c1 ?
A. 2.6

----------
// reported pIC50 for each item listed
Test system: HCT116 (human colon cancer cell line)
METHOD_DESCRIPTION: Antiproliferative MTT assay, HCT116
Assay type: cell-based
ASSAY_CONDITIONS: 72 h incubation, mean ± SD, n = 3, read-out: IC50 HCT-116
Quick note: pIC50 means taking -log10 of the concentration in moles per liter.

Illustrative cases are given below, each with its answer.
Q. What does the record list as pIC50 for COc1ccc2c(c1)NC(=O)/C2=C/c1ccc(OC)c(O)c1 [Compound 45] ?
A. 5.11

Q. What does the record list as pIC50 for COc1ccc2c(c1)NC(=O)/C2=C/c1cccc(C(F)(F)F)c1 [Compound 48] ?
A. 5.42

Q. What does the record list as pIC50 for COc1cccc(/C=C2/C(=O)Nc3cc(OC)ccc32)c1 [Compound 42] ?
A. 5.89

Q. What does the record list as pIC50 for O=C1Nc2cc(F)ccc2/C1=C\c1cccc(C(F)(F)F)c1 [Compound 46] ?
A. 5.05

New cases:
Q. What does the record list as pIC50 for O=C1Nc2cc(Cl)ccc2/C1=C\c1cccc(C(F)(F)F)c1 [Compound 47] ?
A. 5.12

----------
Tested on: HuH7
METHOD_DESCRIPTION: cells
Type: cell-based, human
ASSAY_CONDITIONS: Homo sapiens, Huh-7, 72 h, read-out: IC50 HuH7
// reported IC50 for each item listed

Q. What does the record list as IC50 for COc1cccc(/C=C2/C(=O)Nc3cc(Cl)ccc32)c1 ?
A. > 10 µM

Q. What does the record list as IC50 for COc1ccc2c(c1)NC(=O)/C2=C/c1cccc(C(F)(F)F)c1 ?
A. 2.3 µM

New cases:
Q. What does the record list as IC50 for COc1cccc(/C=C2/C(=O)Nc3ccc(Cl)cc32)c1 ?
A. > 10 µM

Q. What does the record list as IC50 for COc1ccc(/C=C2/C(=O)Nc3cc(Cl)ccc32)cc1O ?
A. > 10 µM

Q. What does the record list as IC50 for O=C1Nc2cc(Cl)ccc2/C1=C\c1cccc(C(F)(F)F)c1 ?
A. 0.5 µM

Q. What does the record list as IC50 for COc1cccc(/C=C2/C(=O)Nc3cc(OC)ccc32)c1 ?
A. 4 µM

Q. What does the record list as IC50 for COc1ccc(/C=C2/C(=O)Nc3cc(F)ccc32)cc1O ?
A. > 10 µM

Q. What does the record list as IC50 for COc1cccc(/C=C2/C(=O)Nc3cc(F)ccc32)c1 ?
A. > 10 µM

Q. What does the record list as IC50 for COc1ccc2c(c1)NC(=O)/C2=C/c1ccc(OC)c(O)c1 ?
A. 8 µM

Q. What does the record list as IC50 for O=C1Nc2cc(F)ccc2/C1=C\c1cccc(C(F)(F)F)c1 ?
A. 1.1 µM

----------
Tested on: HepG2
METHOD_DESCRIPTION: cells
Format: cell-based, human
ASSAY_CONDITIONS: Homo sapiens, HepG2; 10 μM, 72 h, vs vehicle-treated controls; read-out: Percentage viability HepG2
MEASUREMENT_TYPE: viability at 10 µM

Q. What does the record list as viability at 10 µM for COc1cccc(/C=C2/C(=O)Nc3ccc(Cl)cc32)c1 ?
A. 46.1%

Q. What does the record list as viability at 10 µM for O=C1Nc2cc(Cl)ccc2/C1=C\c1cccc(C(F)(F)F)c1 ?
A. 1.1%

Q. What does the record list as viability at 10 µM for COc1ccc2c(c1)NC(=O)/C2=C/c1cccc(C(F)(F)F)c1 ?
A. 14.5%

Q. What does the record list as viability at 10 µM for CCN(CC)CCNC(=O)c1c(C)[nH]c(/C=C2\C(=O)Nc3ccc(F)cc32)c1C [Sunitinib, reference compound] ?
A. 1.8%

Q. What does the record list as viability at 10 µM for COc1ccc(/C=C2/C(=O)Nc3cc(F)ccc32)cc1O ?
A. 28.3%

Q. What does the record list as viability at 10 µM for COc1cccc(/C=C2/C(=O)Nc3cc(Cl)ccc32)c1 ?
A. 46.4%

----------
Test system: HuH7
METHOD_DESCRIPTION: cells
Format: cell-based, human
ASSAY_CONDITIONS: Homo sapiens, Huh-7; 10 μM, 72 h, vs vehicle-treated controls; read-out: Percentage viability HuH7
MEASUREMENT_TYPE: viability at 10 µM (%)
Give a bare numeral; the unit % is implied.

Illustrative cases are given below, each with its answer.
Q. What does the record list as viability at 10 µM for COc1cccc(/C=C2/C(=O)Nc3cc(OC)ccc32)c1 ?
A. 49.2

Q. What does the record list as viability at 10 µM for CCN(CC)CCNC(=O)c1c(C)[nH]c(/C=C2\C(=O)Nc3ccc(F)cc32)c1C [Sunitinib, reference compound] ?
A. 3.4

New cases:
Q. What does the record list as viability at 10 µM for O=C1Nc2cc(F)ccc2/C1=C\c1cccc(C(F)(F)F)c1 ?
A. 11.3

----------
// reported IC50 for each item listed
System: Hepa1c1c7 cells
METHOD_DESCRIPTION: MTT growth inhibition / cytotoxicity on Hepa1c1c7 cells
Assay type: cell-based, murine
ASSAY_CONDITIONS: Mus musculus, Hepa-1c1c7, 48 h, highest concentration tested 25 μM

Q. What does the record list as IC50 for O=C1Nc2cc(F)ccc2/C1=C\c1cccc(C(F)(F)F)c1 [Compound 46] ?
A. 2.2 µM

Q. What does the record list as IC50 for COc1cccc(/C=C2/C(=O)Nc3ccc(Cl)cc32)c1 [Compound 40] ?
A. 17.5 µM

Q. What does the record list as IC50 for COc1cccc(/C=C2/C(=O)Nc3cc(Cl)ccc32)c1 [Compound 41] ?
A. > 25 µM

Q. What does the record list as IC50 for O=C1Nc2cc(Cl)ccc2/C1=C\c1cccc(C(F)(F)F)c1 [Compound 47] ?
A. 1.1 µM

Q. What does the record list as IC50 for COc1ccc(/C=C2/C(=O)Nc3cc(Cl)ccc32)cc1O [Compound 44] ?
A. > 25 µM

New cases:
Q. What does the record list as IC50 for COc1ccc(/C=C2/C(=O)Nc3cc(F)ccc32)cc1O [Compound 43] ?
A. 15.6 µM

Q. What does the record list as IC50 for COc1ccc2c(c1)NC(=O)/C2=C/c1ccc(OC)c(O)c1 [Compound 45] ?
A. 9.8 µM

Q. What does the record list as IC50 for COc1cccc(/C=C2/C(=O)Nc3cc(F)ccc32)c1 [Compound 39] ?
A. 9.8 µM

Q. What does the record list as IC50 for COc1cccc(/C=C2/C(=O)Nc3cc(OC)ccc32)c1 [Compound 42] ?
A. 9.8 µM
